System: Enterobacter cloacae
Procedure: MICs of the lipopeptides (trifluoroacetic acid salt, TFA) were determined by broth microdilution in cation-adjusted Mueller-Hinton broth (CAMHB) (Oxoid Australia, Thebarton, SA, Australia) according to Clinical and Laboratory Standards Institute standards (Clinical and Laboratory Standards Institute. Performance standards for antimicrobial susceptibility testing; eighteenth informational supplement M100-S18. Wayne, Pa., 2008). Polymyxin B (sulphate) was employed as control. […]
Positions of bridges follow the written chain, without caps; N, C: chain ends. Non-standard residues stand in square brackets, D forms with d. Residues, ends and D or L forms follow the SMILES beside them. *: point of attachment. Phenylacetyl(4-Me) = Cc1ccc(CC(=O)*)cc1; X26 = Cc1ccc(CC(=O)*)cc1C; Dab = NCC[C@H](N)C(=O)O; Abu = CC[C@H](N)C(=O)O; Dap = NC[C@H](N)C(=O)O; Hexanoyl = CCCCCC(=O)*
Measure name: Minimum inhibitory concentration, Ec FADDI-EC001

compound="CC[C@@H]1NC(=O)[C@@H](CC(C)C)NC(=O)[C@H](CCN)NC(=O)[C@@H](NC(=O)[C@H](CN)NC(=O)[C@@H](NC(=O)[C@H](CCN)NC(=O)Cc2ccc(C)cc2)[C@@H](C)O)CCNC(=O)[C@H]([C@@H](C)O)NC(=O)[C@H](CCN)NC(=O)[C@H](CCN)NC1=O [Compound 80] ({Phenylacetyl(4-Me)}-[Dab]T[Dap][Dab][Dab][dL][Abu][Dab][Dab]T; lactam 4-C)" assayed_system="Enterobacter cloacae" result="<0.125 µg/mL"
compound="CC[C@@H]1NC(=O)[C@@H](CC(C)C)NC(=O)[C@H](CCN)NC(=O)[C@@H](NC(=O)[C@H](CN)NC(=O)[C@@H](NC(=O)[C@H](CCN)NC(=O)Cc2ccc(C)c(C)c2)[C@@H](C)O)CCNC(=O)[C@H]([C@@H](C)O)NC(=O)[C@H](CCN)NC(=O)[C@H](CCN)NC1=O [Compound 103] (X26-[Dab]T[Dap][Dab][Dab][dL][Abu][Dab][Dab]T; lactam 4-C)" assayed_system="Enterobacter cloacae" result="<0.125 µg/mL"

Then this compound:
Exercise: Sample CCCCCC(=O)N[C@@H](CCN)C(=O)N[C@H](C(=O)N[C@@H](CN)C(=O)N[C@H]1CCNC(=O)[C@H]([C@@H](C)O)NC(=O)[C@H](CCN)NC(=O)[C@H](CCN)NC(=O)[C@H](C)NC(=O)[C@@H](CC(C)C)NC(=O)[C@H](CCN)NC1=O)[C@@H](C)O [Compound 67] (Hexanoyl-[Dab]T[Dap][Dab][Dab][dL]A[Dab][Dab]T; lactam 4-C) — what was its Minimum inhibitory concentration, Ec FADDI-EC001?
Solution: <0.125 µg/mL
